The origin of these recorded values is ChEMBL document CHEMBL4765231.

method_summary: Permeability of compound across apical to basolateral side in human Caco-2 cells
Format: ADME, cell-based
experimental_parameters: read-out: permeability
parameter_measured: Papp A→B
Give the number first and the unit second.

Exercise: Output Papp A→B of O=C1c2cc(-c3ccc(OC(F)(F)F)cc3)ccc2OCCN1Cc1ncccn1
Solution: 34.6 ×10⁻⁶ cm/s

---

method_summary: Oral bioavailability in Beagle dog
Format: ADME, organism-based, Canis lupus familiaris
experimental_parameters: in vivo
parameter_measured: bioavailability (%)
The response must be a number in % with no trailing unit.

Exercise: Provide measured bioavailability value, entry: O=C1c2cc(-c3ccc(OC(F)(F)F)cc3)ccc2OCCN1Cc1ncccn1
Solution: 100

---

method_summary: Clearance in iv dosed Sprague-Dawley rat
Type: ADME, organism-based
experimental_parameters: in vivo
parameter_measured: clearance (mL/min/kg)
A number alone suffices; assume mL/min/kg.

Exercise: Return the recorded clearance value; entry: O=C1c2cc(-c3ccc(OC(F)(F)F)cc3)ccc2OCCN1Cc1ncccn1 [ELECLAZINE]
Solution: 2.33

---

target: Sodium channel protein type 10 subunit alpha (Homo sapiens)
Sequence (Q9Y5Y9 whole entry): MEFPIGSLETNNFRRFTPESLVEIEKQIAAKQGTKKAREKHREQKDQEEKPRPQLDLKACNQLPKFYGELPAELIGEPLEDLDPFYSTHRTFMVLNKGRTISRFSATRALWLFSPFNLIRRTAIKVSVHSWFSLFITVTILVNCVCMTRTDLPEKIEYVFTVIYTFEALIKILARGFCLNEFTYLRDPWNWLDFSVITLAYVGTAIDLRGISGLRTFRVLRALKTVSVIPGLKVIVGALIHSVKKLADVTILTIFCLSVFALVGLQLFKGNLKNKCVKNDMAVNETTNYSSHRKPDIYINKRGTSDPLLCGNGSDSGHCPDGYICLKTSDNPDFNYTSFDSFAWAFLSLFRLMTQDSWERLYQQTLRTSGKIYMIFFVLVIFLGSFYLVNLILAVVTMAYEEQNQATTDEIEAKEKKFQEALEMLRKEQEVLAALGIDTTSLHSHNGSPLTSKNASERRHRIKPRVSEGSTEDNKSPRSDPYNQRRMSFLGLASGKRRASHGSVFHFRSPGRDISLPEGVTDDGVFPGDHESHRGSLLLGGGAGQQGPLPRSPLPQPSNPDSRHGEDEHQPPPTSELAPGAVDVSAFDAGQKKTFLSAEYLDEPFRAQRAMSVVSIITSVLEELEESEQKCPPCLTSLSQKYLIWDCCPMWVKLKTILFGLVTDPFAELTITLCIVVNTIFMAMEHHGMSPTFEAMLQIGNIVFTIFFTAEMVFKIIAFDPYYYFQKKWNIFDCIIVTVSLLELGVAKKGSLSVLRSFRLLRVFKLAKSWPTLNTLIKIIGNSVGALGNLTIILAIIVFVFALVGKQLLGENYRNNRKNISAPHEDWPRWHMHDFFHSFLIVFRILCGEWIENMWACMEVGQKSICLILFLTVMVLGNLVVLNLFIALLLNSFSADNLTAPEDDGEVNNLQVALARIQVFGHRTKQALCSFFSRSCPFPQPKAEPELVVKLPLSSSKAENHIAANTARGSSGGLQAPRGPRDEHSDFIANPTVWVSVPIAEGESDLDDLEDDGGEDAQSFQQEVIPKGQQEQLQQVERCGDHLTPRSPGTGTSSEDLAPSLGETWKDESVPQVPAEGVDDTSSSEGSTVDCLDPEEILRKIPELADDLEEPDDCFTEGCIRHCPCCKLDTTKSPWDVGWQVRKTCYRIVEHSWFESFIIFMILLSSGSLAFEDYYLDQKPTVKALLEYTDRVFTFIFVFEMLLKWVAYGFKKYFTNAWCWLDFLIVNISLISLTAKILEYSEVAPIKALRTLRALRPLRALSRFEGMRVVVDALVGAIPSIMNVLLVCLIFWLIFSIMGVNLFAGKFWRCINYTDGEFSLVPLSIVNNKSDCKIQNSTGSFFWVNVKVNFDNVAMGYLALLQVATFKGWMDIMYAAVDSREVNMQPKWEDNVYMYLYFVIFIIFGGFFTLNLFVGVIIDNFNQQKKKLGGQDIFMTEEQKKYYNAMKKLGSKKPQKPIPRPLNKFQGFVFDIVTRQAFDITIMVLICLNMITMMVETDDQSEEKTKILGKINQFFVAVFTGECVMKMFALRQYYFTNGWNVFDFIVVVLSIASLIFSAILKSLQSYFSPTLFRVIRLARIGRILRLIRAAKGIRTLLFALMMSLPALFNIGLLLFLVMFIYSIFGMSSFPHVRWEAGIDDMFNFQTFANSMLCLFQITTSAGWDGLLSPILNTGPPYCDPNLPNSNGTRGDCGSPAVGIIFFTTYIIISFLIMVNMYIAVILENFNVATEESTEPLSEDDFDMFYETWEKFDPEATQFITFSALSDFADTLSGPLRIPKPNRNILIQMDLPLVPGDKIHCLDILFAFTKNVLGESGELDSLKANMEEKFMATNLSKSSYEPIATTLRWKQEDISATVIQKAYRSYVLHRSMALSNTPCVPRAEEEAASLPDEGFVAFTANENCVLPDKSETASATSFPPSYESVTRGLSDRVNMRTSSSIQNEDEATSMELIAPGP
method_summary: Inhibition of NaV1.8 (unknown origin) at 10 Hz frequency by whole cell manual patch clamp technique
parameter_measured: pIC50
To interpret pIC50, take it as minus log10 of a concentration measured in moles per litre.

Exercise: Consider the compound O=C1c2cc(-c3ccc(OC(F)(F)F)cc3)ccc2OCCN1Cc1ncccn1 . State its measured pIC50.
Solution: 4.73

---

# solubility listing for each entry below
method_summary: Solubility of compound in water
Type: physicochemical
// units = µM; emit number, no label

O=C1c2cc(-c3ccc(C(F)(F)F)cc3)ccc2CCN1Cc1ncccn1; 28
O=C1c2cc(-c3ccc(C(F)(F)F)cc3)ccc2OCCN1Cc1ncccn1; 87
O=C1c2cc(-c3ccc(OC(F)(F)F)cc3)ccc2CCN1Cc1ncccn1; 60

// below: solubility requested for another compound
Exercise: Read off the recorded solubility for O=C1c2cc(-c3ccc(OC(F)(F)F)cc3)ccc2OCCN1Cc1ncccn1
Solution: 24

---

target: NaV1.1 (Homo sapiens)
method_summary: Inhibition of NaV1.1 (unknown origin) expressed in cells assessed as inhibition of peak INa current at 10 uM at 25 Hz frequency by whole-cell patch clamp method relative to control
Assay type: cell-based
experimental_parameters: cells expressing NaV1.1
parameter_measured: inhibition at 10 µM (%)
Report the value in % with no unit label.

Exercise: Report inhibition at 10 µM for O=C1c2cc(-c3cccc(OC(F)(F)F)c3)ccc2OCCN1Cc1ncccn1
Solution: 18

Exercise: Retrieve inhibition at 10 µM measured for COc1ccnc(CN2CCOc3ccc(-c4ccc(OC(F)(F)F)cc4)cc3C2=O)n1 and print it.
Solution: 60

Exercise: Please list inhibition at 10 µM recorded for the compound O=C1c2cc(-c3ccc(OC(F)(F)F)cc3)ccc2CCN1Cc1ncccn1
Solution: 23

---

Species on record: Oryctolagus cuniculus
method_summary: Cardioprotective activity in New Zealand White rabbit heart assessed as reversal of ATX-II induced late sodium current prolongation in change in duration of monophasic action potential at 90 percent repolarization at 1 uM by electrocardiographic analysis relative to control
Type: functional
parameter_measured: Activity
Please provide the amount together with its unit, number first.

O=C1c2cc(-c3ccc(OC(F)(F)F)cc3)ccc2CCN1Cc1ncccn1; 6%
O=C1c2cc(-c3ccc(C(F)(F)F)cc3)ccc2CCN1Cc1ncccn1; 25%
O=C1c2cc(-c3ccc(OC(F)(F)F)c(Cl)c3)ccc2OCCN1Cc1ncccn1; 23%
O=C1c2cc(-c3ccc(Cl)c(F)c3)ccc2OCCN1Cc1ncccn1; 58%
O=C1c2cc(-c3ccc(C(F)(F)F)cc3)ccc2OCCN1Cc1ncccn1; 62%

Exercise: State its Activity for this compound: O=C1c2cc(-c3cccc(OC(F)(F)F)c3)ccc2OCCN1Cc1ncccn1
Solution: 29%

Exercise: Look up Activity of O=C1c2cc(-c3ccc(OC(F)(F)F)cc3F)ccc2OCCN1Cc1ncccn1 and report it.
Solution: 39%

Exercise: Return Activity (reported value) for this compound: O=C1c2cc(-c3ccc(OC(F)(F)F)cc3)ccc2OCCN1Cc1ncccn1
Solution: 62%

Exercise: For the compound O=C1c2cc(-c3ccc(Cl)cc3)ccc2OCCN1Cc1ncccn1 , give its measured Activity value.
Solution: 68%
